Tested on: SK-OV-3 ovarian
EXPERIMENT_NOTES: NCI tumour cell line growth inhibition, 48 h
TGI: recorded values

// known answers, use as guide
COC(=O)C(CC(=O)c1ccccc1)c1ccccc1NC(C)=O (stereo not given)    > 100 µM
OC1CCN(c2c3ccccc3nc3ccccc23)CC1    82.7 µM
O=P(O)(O)C(NCC(O)CN1CCOCC1)P(=O)(O)O (stereo not given)    > 100 µM
N#C/C(=C\c1cc(F)cc(F)c1)c1ccccn1    > 100 µM

Recall the reported TGI of CC[C@@]1(O)C[C@H](OC2CC(N(C)C)C(OC3CC(O)C(OC4CC(O)C(O)C(C)O4)C(C)O3)C(C)O2)c2c(cc3c(c2O)C(=O)c2c(O)ccc(O)c2C3=O)[C@H]1C(=O)OC (stereo not given in full) on SK-OV-3 ovarian and write it down.
3.04 µM

Recall the reported TGI of "O=C(O)CN1CCNCCNCC1" on SK-OV-3 ovarian and write it down.
> 100 µM

Recall the reported TGI of "COc1ccc(CCn2c3c(c4c(O)cccc42)C(=O)c2ccccc2-3)cc1OC" on SK-OV-3 ovarian and write it down.
> 100 µM

Recall the reported TGI of C=Cc1ccccc1 (tested in a mixture with another compound) on SK-OV-3 ovarian and write it down.
> 75 µg/mL

Recall the reported TGI of "N#CCCN(CCCN(C(=O)N(c1ccccc1)c1ccccc1)c1ccccc1)C(=O)Nc1ccccc1" on SK-OV-3 ovarian and write it down.
> 100 µM

Recall the reported TGI of COc1cc(C2=NNC(c3ccc(N(C)C)cc3)C2)cc(OC)c1OC (stereo not given) on SK-OV-3 ovarian and write it down.
> 100 µM

----------
System: OVCAR-8 ovarian
EXPERIMENT_NOTES: NCI tumour cell line growth inhibition, 48 h
TGI: recorded values

// known answers, use as guide
CCCc1c(Cl)nc(Cl)nc1Cl    > 19.9 µM
Cc1nnc(N)nc1C/C=C/C(Sc1ccc(Cl)cc1)c1ccccc1 (stereo not given)    34.8 µM
COc1ccc2nc3ccccc3c(NCCN(C)CCCl)c2c1    2.76 µM

For the molecule "CCN=C1Nc2ccccc2-n2c(nn3nc4ccccc4c23)N1CC" , give its reported TGI.
> 100 µM

For the molecule "COc1ccc(NCc2cc(OC)c(OC)c(OC)c2)cc1" , give its reported TGI.
> 100 µM

For the molecule "c1ccc(-c2cc(-c3cccs3)c(-c3cccs3)s2)cc1" , give its reported TGI.
> 100 µM

For the molecule "O=C(Nc1ccccc1-c1nn(CO)c(=S)n(CO)c1=O)C(F)(F)F" , give its reported TGI.
> 100 µM

For the molecule COC(=O)C(C(=O)C(=O)Nc1nc2ccc([N+](=O)[O-])cc2s1)c1nc2ccc(Cl)cc2[nH]c1=O (stereo not given) , give its reported TGI.
> 100 µM

For the molecule "Cc1cccc(NC(=O)/C=C/c2ccccc2)c1C" , give its reported TGI.
> 100 µM

For the molecule COC1CC2C3/C(=N/Nc4ccc([N+](=O)[O-])cc4[N+](=O)[O-])CCC2(C)C3C1 (stereo not given) , give its reported TGI.
> 100 µM

For the molecule "COc1cc2oc3c(c(=O)c2c(O)c1/C=C/C(C)C)CCC(C)(C)Oc1cc(O)ccc1-3" , give its reported TGI.
31.4 µM

For the molecule "O=S1CCN(Cc2ccc(-c3ccc4ncnc(Nc5ccc(OCc6ccccc6)c(Cl)c5)c4c3)o2)CC1" , give its reported TGI.
> 25 µM

For the molecule "CCOc1nc(OCC)nc(-c2cccn2-c2ccccc2)n1" , give its reported TGI.
> 100 µM

For the molecule "O=C1c2ccccc2-c2c1c(-c1ccc(O)cc1O)nc1ccc3ccccc3c21" , give its reported TGI.
> 100 µM

For the molecule "O=C1Nc2ccccc2/C1=C/C(=N/c1nnc(-c2ccccc2)s1)c1ccccc1" , give its reported TGI.
9.35 µM

For the molecule "O=C1NC(N/N=C/c2c[nH]c3ccccc23)=N/C1=C\c1cccs1" , give its reported TGI.
> 100 µM

For the molecule "C/C=C/[C@@H]1[C@H]2C(=O)[C@]3(Cl)[C@@H](/C=C/C)[C@@H]3C(=O)[C@@]12Cl" , give its reported TGI.
> 100 µM

For the molecule "Cc1cc(NN)nc2n[nH]c(N)c12" , give its reported TGI.
> 100 µM

For the molecule "NN/C(=N\S(=O)(=O)c1cc2ccccc2o1)Nc1ccc(Cl)cc1" , give its reported TGI.
> 100 µM

For the molecule CC(C)C1CNC2N1C(=O)C2(C)OCc1ccccc1 (stereo not given) , give its reported TGI.
> 100 µM

# credit: PubChem BioAssay (NCI)
